# System: Human immunodeficiency virus 1
# METHOD_SUMMARY: Antiviral activity against HIV1 NL4-3 in human MT4 cells assessed as inhibition of virus-induced cytopathogenicity by MTT assay
# Assay type: functional, organism-based
# CONDITION_CONTEXT: Human immunodeficiency virus 1, NL4-3, MT4
MEASUREMENT_LABEL: EC50 (nM)

- COMPOUND: "CCC(C)c1c(Cc2c(F)cccc2Cl)nc(SCC(=O)c2ccc(OC)cc2)[nH]c1=O (centres undefined)"
  QUANTITATIVE_READOUT: 6
- COMPOUND: "CCc1c(Cc2c(F)cccc2F)nc(SCC(=O)c2ccccc2)[nH]c1=O"
  QUANTITATIVE_READOUT: 12
- COMPOUND: "O=c1cc(Cc2c(F)cccc2F)nc(Sc2ccccc2)[nH]1"
  QUANTITATIVE_READOUT: 1400
- COMPOUND: "CC(=O)CSc1nc(Cc2c(F)cccc2F)cc(=O)[nH]1"
  QUANTITATIVE_READOUT: 3100

Attribution: ChEMBL document CHEMBL1155883
